Quick reference for normalized RNA/DNA level without ligand (log10) among some variants
B1: library; a variant is named by its letters at N, in order (parent)
chain: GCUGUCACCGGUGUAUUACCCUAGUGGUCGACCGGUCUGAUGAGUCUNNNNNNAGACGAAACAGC

Variants of: B1
Experiment: normalized RNA/DNA level without ligand (relative to sTRSVctl = 100) (log10 (% of sTRSVctl)); ligand: hypoxanthine (xanthine aptamer); higher = less ribozyme self-cleavage, higher mRNA level
Conditions: HEK293T, reporter: mCherry (pCS4076), ligand present: no
The reply should be a number, written without any unit.

Record excerpt, results attached:
GCUGUCACCGGUGUAUUACCCUAGUGGUCGACCGGUCUGAUGAGUCUGUACUGAGACGAAACAGC    1.53
GCUGUCACCGGUGUAUUACCCUAGUGGUCGACCGGUCUGAUGAGUCUUCGGAAAGACGAAACAGC    1.31
GCUGUCACCGGUGUAUUACCCUAGUGGUCGACCGGUCUGAUGAGUCUAGGAUGAGACGAAACAGC    1.25
GCUGUCACCGGUGUAUUACCCUAGUGGUCGACCGGUCUGAUGAGUCUCUACCUAGACGAAACAGC    1.94
GCUGUCACCGGUGUAUUACCCUAGUGGUCGACCGGUCUGAUGAGUCUAUGUGGAGACGAAACAGC    1.27
GCUGUCACCGGUGUAUUACCCUAGUGGUCGACCGGUCUGAUGAGUCUGCUGAUAGACGAAACAGC    1.78
GCUGUCACCGGUGUAUUACCCUAGUGGUCGACCGGUCUGAUGAGUCUGGGGCUAGACGAAACAGC    2.01
GCUGUCACCGGUGUAUUACCCUAGUGGUCGACCGGUCUGAUGAGUCUAUUGCCAGACGAAACAGC    1.85

Q: Provide only the value of recorded normalized RNA/DNA level without ligand (log10) for GCUGUCACCGGUGUAUUACCCUAGUGGUCGACCGGUCUGAUGAGUCUGGAGUCAGACGAAACAGC
A: 1.89

Q: Provide only the value of recorded normalized RNA/DNA level without ligand (log10) for GCUGUCACCGGUGUAUUACCCUAGUGGUCGACCGGUCUGAUGAGUCUGUGGCGAGACGAAACAGC
A: 1.61

Q: Provide only the value of recorded normalized RNA/DNA level without ligand (log10) for GCUGUCACCGGUGUAUUACCCUAGUGGUCGACCGGUCUGAUGAGUCUCCAUUAAGACGAAACAGC
A: 1.84

Q: Provide only the value of recorded normalized RNA/DNA level without ligand (log10) for GCUGUCACCGGUGUAUUACCCUAGUGGUCGACCGGUCUGAUGAGUCUUGGGUCAGACGAAACAGC
A: 1.97
